- experiment: Solubility in water (Test Example 2)
- Format: physicochemical
- condition: 5% aqueous glucose solution, saline or isotonic
measurement.name: solubility

cpd.smiles: CCCCCCc1ssc(=S)c1Cc1ccc(OC)c(S(=O)(=O)[O-])c1.[Na+]
solubility: ≥ 10000 µg/mL

Now take the following molecule into account.
Which solubility reading was recorded for the molecule COc1ccc(-c2c(-c3ccc(C)cc3)ssc2=S)cc1S(=O)(=O)[O-].[Na+] ?
≥ 10000 µg/mL
